# test-name: NCI Yeast Anticancer Drug Screen. Data for the mgt1 strain (AID 153)
# test-context: S. cerevisiae mgt1 mutant growth inhibition; at 3.7 µM; active compounds read high
The panel holds about 79,000 compounds, 15% with a hit somewhere; the sample as a whole holds those more often.
Below is a list of entries, each paired with its recorded growth inhibition value.
Number in %, nothing else.

Prompt line: Answer with the recorded growth inhibition of O=C1/C(=C/c2ccccc2)CCCC1CN1CCCCC1 (stereo not drawn) only.
Response line: 44

Prompt line: Answer with the recorded growth inhibition of C=C1CCC(O)C/C1=C/C=C1\CCCC2(C)C1CCC2C(C)CCCC(C)C (stereo not drawn) only.
Response line: -15

Prompt line: Answer with the recorded growth inhibition of COc1cc(C2SCC(=O)N2c2ccc(-c3ccc(-n4c(-c5ccccc5)nc5ccccc5c4=O)cc3)cc2)ccc1O (stereo not drawn) only.
Response line: 1

Prompt line: Answer with the recorded growth inhibition of CCCCCCCCCCCC(O)S(=O)(=O)O (stereo not drawn) only.
Response line: 0

Prompt line: Answer with the recorded growth inhibition of CCCCN(CCCC)CCC(O)c1cc2c(Cl)cc(Cl)cc2c2cc(C(F)(F)F)ccc12 (stereo not drawn) only.
Response line: 30

New cases:
Prompt line: Answer with the recorded growth inhibition of "Cc1cc(C)c(NC(=S)NC(=O)c2ccccc2)cc1C" only.
Response line: -54

###

Below is a list of entries, each paired with its recorded growth inhibition value.
# test-name: NCI Yeast Anticancer Drug Screen. Data for the CLN2oe strain (AID 163);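 also: 0% = growth of vehicle-only control cultures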
# test-context: S. cerevisiae CLN2oe strain, at 100.0 µM, active compounds read high
This is part of a sample that, as a whole, favours compounds with a hit. Of some 79,000 tested, about 15% had one in any assay.
Number in %, nothing else.

Prompt line: Answer with the recorded growth inhibition of "Oc1ccc2ccccc2c1CCc1c(O)ccc2ccccc12" only.
Response line: 82

New cases:
Prompt line: Answer with the recorded growth inhibition of Cc1nc2c(Br)cc(Br)cc2c(=O)n1-c1ccccc1NC1OCC(O)C(O)C1O (centres undefined) only.
Response line: 97

Prompt line: Answer with the recorded growth inhibition of O=C(NNc1ccccc1)C(O)C(O)C(O)C(O)C(O)CO (centres undefined) only.
Response line: 76

Prompt line: Answer with the recorded growth inhibition of "CN(C)[C@@H]1C(=O)C(C(N)=O)=C(O)[C@@]2(O)C(=O)C3=C(O)c4c(O)cccc4C[C@H]3C[C@@H]12" only.
Response line: 99

###

Below is a list of entries, each paired with its recorded growth inhibition value.
# test-name: NCI Yeast Anticancer Drug Screen. Data for the wt2 strain (AID 169);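 also: 0% = growth of vehicle-treated yeast cultures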
# test-context: S. cerevisiae wt2 strain growth inhibition; at 1.2 µM; active compounds read high
# Experimental: Growth inhibition of yeast strains with defined genetic alterations is measured as a screen for potential anti-cancer activity. Selected strains with alterations in DNA damage repair or cell cycle control were exposed to compounds and growth inhibition was measured relative to vehicle treated controls. The strain used in this assay is wt2
Compounds without any hit were thinned out: in the full panel of roughly 79,000, 15% have a hit.
Number in %, nothing else.

Consider the following illustrative entries.
Prompt line: Answer with the recorded growth inhibition of "COC1=C(N)C(=O)c2nc(-c3nc(C(=O)O)c(C)c(-c4ccc(OC)c(OC)c4O)c3N)ccc2C1=O" only.
Response line: 91

Prompt line: Answer with the recorded growth inhibition of "Cc1nc(-c2cc3cc([N+](=O)[O-])ccc3oc2=O)cs1" only.
Response line: -42

Prompt line: Answer with the recorded growth inhibition of "O=C1Nc2ccc(Br)cc2C1=Nc1ccc2c(c1)OCO2" only.
Response line: 0

Prompt line: Answer with the recorded growth inhibition of Cc1ccc2c(c1)C1(SC(C)C(=O)N1c1ccc(Cl)cc1)C(=O)N2 (stereo unspecified) only.
Response line: -2

Prompt line: Answer with the recorded growth inhibition of "O=[N+]([O-])c1cccc2nc3ccccc3c(NCCC[N+]3([O-])CCCCC3)c12" only.
Response line: 0

Prompt line: Answer with the recorded growth inhibition of "CC1=NOC(=O)/C1=C/c1ccc2c(c1)OCO2" only.
Response line: 2

New cases:
Prompt line: Answer with the recorded growth inhibition of N#CC1=C(N)N(/N=C/c2ccccc2)C(c2ccccc2)C1(C#N)C#N (stereo unspecified) only.
Response line: -9

Prompt line: Answer with the recorded growth inhibition of "CC(=O)ON=C1C=CC(=C(C#N)c2ccc(Cl)cc2)C=C1" only.
Response line: 1

Prompt line: Answer with the recorded growth inhibition of "NC(=O)c1c([N+](=O)[O-])cc(C(F)(F)F)cc1[N+](=O)[O-]" only.
Response line: 0

Prompt line: Answer with the recorded growth inhibition of Cc1cccc(C(C)(C)C)c1NC(=O)C(C#N)C1=C(Cl)C(=O)c2ccccc2C1=O (stereo unspecified) only.
Response line: -21

Prompt line: Answer with the recorded growth inhibition of "COc1cccc(/C=N/C(/N=C/c2cccc(OC)c2O)c2cccc(OC)c2O)c1O" only.
Response line: 0

Prompt line: Answer with the recorded growth inhibition of CN(C)c1ccc(C2CC(C)(O)Oc3cc4c(cc32)OCO4)cc1 (stereo unspecified) only.
Response line: -1

Prompt line: Answer with the recorded growth inhibition of COC1CCC(O)C(/C=C/[N+](=O)[O-])C1 (stereo unspecified) only.
Response line: 9

Prompt line: Answer with the recorded growth inhibition of "CC(C)c1ccc(NC(=S)NC(=O)c2ccccc2)cc1" only.
Response line: -25

Prompt line: Answer with the recorded growth inhibition of "O=C1NC(SSC2=NNC3(C(=O)N2)c2ccccc2-c2ccccc23)=NNC12c1ccccc1-c1ccccc12" only.
Response line: -1

Prompt line: Answer with the recorded growth inhibition of C=C1CC(CCCl)(c2ccccc2)OC1=O (stereo unspecified) only.
Response line: -22
